assay: in vivo; conditions: both, ICR, mouse, iv
reported.property: half-life
# output: numeric value plus its unit

Dear colleague, I am looking for the recorded half-life of the following compound: O=C(NN1C(=O)C2C3C=CC(C4CC34)C2C1=O)c1ccc(C(F)(F)F)cc1 (stereo not shown)
2 h

###

assay: in vivo; details: both, ICR, mouse, po
reported.property: half-life (h)
Write down the numeric answer in h and omit the unit.

Given the entry O=C(NN1C(=O)C2C3C=CC(C4CC34)C2C1=O)c1ccc(C(F)(F)F)cc1 (stereo not shown) , report its measured half-life.
3.4

###

experiment: in vivo; settings: both, ICR, mouse, iv, maximum concentration (Cmax) of ST-246 in serum
reported.property: Cmax
Returns: string containing the numeric result and its unit.

Return reported Cmax; argument: O=C(NN1C(=O)C2C3C=CC(C4CC34)C2C1=O)c1ccc(C(F)(F)F)cc1 (stereo not shown)
13200 ng/mL
